The values you see were collected from paper PMC6270201.

Tested on: Balb/3T3 non-tumor fibroblasts
Assay: MTT reduction assay, non-tumor fibroblasts
Format: cell-based
Conditions: Mus musculus, 48 h incubation, mean of at least three experiments, read-out: EC50 ± SEM BALB/3T3
Protocol: The oxygen-substituted diaryl ketones 3–23 were evaluated for their in vitro antiproliferative activity on a panel of four cell lines, including non-tumor fibroblasts (Balb/3T3) and three human-derived tumor cell lines, namely DU-145 (prostate), T24 (bladder) and MCF7 (breast), using the conventional microculture tetrazolium reduction assay. […]
Below, each of the molecules is paired with its reported EC50 value.
State the answer as a number, implicitly in µM.

[
  {
    "molecule": "Cc1ccccc1C(=O)c1cc(O)c2ccccc2c1O",
    "EC50 (µM)": 226
  }
]

-- ask Find EC50 for COc1cccc(C(=O)c2cc(O)ccc2O)c1 on Balb/3T3 non-tumor fibroblasts and write it down.
-- reply 118

-- ask Give the observed EC50 of CO[C@@]12[C@H](COC(N)=O)C3=C(C(=O)C(C)=C(N)C3=O)N1C[C@@H]1N[C@@H]12 [MIT, mitomycin C, reference compound] for Balb/3T3 non-tumor fibroblasts.
-- reply 27.3

-- ask State EC50 on Balb/3T3 non-tumor fibroblasts. Entry: COc1ccc(C(=O)c2cc(O)ccc2O)cc1
-- reply 85.2

---

Quick reference: melting point of the listed items.

[
  {
    "molecule": "COc1cc(C(=O)c2cc(O)c3ccccc3c2O)ccc1O",
    "melting point": "221 to 222 °C"
  },
  {
    "molecule": "COc1cc(C(=O)c2cc(O)ccc2O)cc(OC)c1OC",
    "melting point": "68 to 70 °C"
  },
  {
    "molecule": "Cc1ccccc1C(=O)c1cc(O)c2ccccc2c1O",
    "melting point": "132 to 133 °C"
  }
]

-- ask Report melting point, nothing else, for this molecule: COc1ccc(C(=O)c2cc(O)c3ccccc3c2O)cc1OC
-- reply 212 to 213 °C

-- ask Please look at this molecule and report its melting point: Cc1ccc(C(=O)c2cc(O)ccc2O)cc1
-- reply 135 to 136 °C

-- ask Indicate the recorded melting point value for this molecule: Cc1ccccc1C(=O)c1cc(O)ccc1O
-- reply 104 to 105 °C

-- ask Name the recorded melting point of the molecule listed here: COc1cccc(C(=O)c2cc(O)c3ccccc3c2O)c1
-- reply 149 to 150 °C

-- ask Specify reported melting point for the molecule shown: COc1cc(C(=O)c2cc(O)ccc2O)cc(OC)c1O
-- reply 200 to 201 °C

-- ask // fetch melting point given entry COc1cccc(C(=O)c2cc(O)ccc2O)c1
-- reply 97 to 98 °C

-- ask Read off the recorded melting point for COc1ccc(OC)c(C(=O)c2cc(O)c3ccccc3c2O)c1
-- reply 160 to 161 °C

---

Reported pEC50 values follow for various compounds
test system: Balb/3T3 non-tumor fibroblasts; experiment: MTT reduction assay, non-tumor fibroblasts; assay type: cell-based; settings: Mus musculus, 48 h incubation, mean of at least three experiments, read-out: EC50 ± SEM BALB/3T3
Reminder that pEC50 means the negative base-10 logarithm of the concentration expressed in mol/L.

[
  {
    "compound": "COc1cc(C(=O)c2cc(O)c3ccccc3c2O)ccc1O [compound 21]",
    "measuredValue": 4.80
  },
  {
    "compound": "COc1cc(C(=O)c2cc(O)c3ccccc3c2O)cc(OC)c1OC [compound 22]",
    "measuredValue": 4.60
  },
  {
    "compound": "COc1ccc(OC)c(C(=O)c2cc(O)c3ccccc3c2O)c1 [compound 19]",
    "measuredValue": 4.00
  }
]

// next entry
-- ask Given COc1ccc(C(=O)c2cc(O)ccc2O)cc1OC [compound 10] , respond with its pEC50.
-- reply 4.45
